# SUBJECT OF TEST: Vitronectin receptor αVβ3 (Homo sapiens, UniProt P05106+P06756)
# Sequence (P06756 31-889 limits assumed): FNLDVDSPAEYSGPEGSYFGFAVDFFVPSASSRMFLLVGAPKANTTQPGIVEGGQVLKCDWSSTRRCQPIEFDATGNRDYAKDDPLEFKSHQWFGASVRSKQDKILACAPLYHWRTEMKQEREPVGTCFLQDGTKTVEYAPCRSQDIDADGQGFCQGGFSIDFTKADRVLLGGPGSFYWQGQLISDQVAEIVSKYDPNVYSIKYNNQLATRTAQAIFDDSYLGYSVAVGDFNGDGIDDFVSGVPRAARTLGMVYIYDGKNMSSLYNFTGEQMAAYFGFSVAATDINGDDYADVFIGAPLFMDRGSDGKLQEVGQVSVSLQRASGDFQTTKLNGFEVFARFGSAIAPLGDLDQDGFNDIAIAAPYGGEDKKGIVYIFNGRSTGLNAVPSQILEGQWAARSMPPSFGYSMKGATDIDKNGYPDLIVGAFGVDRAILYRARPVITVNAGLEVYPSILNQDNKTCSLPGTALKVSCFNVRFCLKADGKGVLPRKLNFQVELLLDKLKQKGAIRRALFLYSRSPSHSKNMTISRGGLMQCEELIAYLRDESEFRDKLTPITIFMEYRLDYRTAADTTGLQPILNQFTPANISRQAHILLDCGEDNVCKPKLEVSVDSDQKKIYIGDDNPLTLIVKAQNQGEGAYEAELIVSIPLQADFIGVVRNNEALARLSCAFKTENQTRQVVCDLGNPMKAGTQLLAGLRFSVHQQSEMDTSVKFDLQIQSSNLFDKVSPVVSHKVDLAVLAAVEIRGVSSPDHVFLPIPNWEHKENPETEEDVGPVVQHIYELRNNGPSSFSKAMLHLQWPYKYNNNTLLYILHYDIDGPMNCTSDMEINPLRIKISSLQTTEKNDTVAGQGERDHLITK
# Sequence (P06756 891-1048 partner limits assumed): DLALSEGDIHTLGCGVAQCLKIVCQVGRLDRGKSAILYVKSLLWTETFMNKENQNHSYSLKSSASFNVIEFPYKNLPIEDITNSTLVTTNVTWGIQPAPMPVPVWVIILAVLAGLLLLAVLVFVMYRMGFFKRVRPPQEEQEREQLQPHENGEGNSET
# Sequence (P05106 27-788): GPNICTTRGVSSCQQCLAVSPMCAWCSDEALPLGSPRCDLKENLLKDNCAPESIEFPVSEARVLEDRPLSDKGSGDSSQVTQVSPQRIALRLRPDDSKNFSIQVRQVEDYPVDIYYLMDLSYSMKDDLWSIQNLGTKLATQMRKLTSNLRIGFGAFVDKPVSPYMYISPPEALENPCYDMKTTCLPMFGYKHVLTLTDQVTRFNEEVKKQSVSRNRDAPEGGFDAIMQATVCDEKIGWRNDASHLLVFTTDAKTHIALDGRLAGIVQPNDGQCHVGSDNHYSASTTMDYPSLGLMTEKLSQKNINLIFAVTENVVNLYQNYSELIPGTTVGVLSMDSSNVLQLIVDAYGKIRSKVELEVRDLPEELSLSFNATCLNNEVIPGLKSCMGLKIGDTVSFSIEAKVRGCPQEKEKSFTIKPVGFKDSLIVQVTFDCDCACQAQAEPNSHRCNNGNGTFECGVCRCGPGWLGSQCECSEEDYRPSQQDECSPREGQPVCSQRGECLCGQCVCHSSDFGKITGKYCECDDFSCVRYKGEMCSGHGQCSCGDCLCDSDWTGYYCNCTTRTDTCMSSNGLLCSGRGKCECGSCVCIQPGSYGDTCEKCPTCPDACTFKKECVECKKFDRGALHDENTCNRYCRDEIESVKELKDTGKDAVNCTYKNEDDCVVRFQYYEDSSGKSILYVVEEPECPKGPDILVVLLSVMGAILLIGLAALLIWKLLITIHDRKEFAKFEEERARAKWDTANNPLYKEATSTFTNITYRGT
# ASSAY METHOD TEXT: Vitronectin Receptor αVβ3 Binding Assay
# SETUP CONDITIONS: read-out: VnR (IC50μM)
pIC50: −log10 of the molar value.
ENDPOINT LABEL: pIC50

CC(C)(C)COC(=O)N[C@@H](CNC(=O)c1ccc(OCCNC(=O)NCc2cccnc2)cc1O)C(=O)O : 6.16

P: CCCCOC(=O)N[C@@H](CNC(=O)c1ccc(OCCNC2=NCCN2)cc1O)C(=O)O
Q: N=C(N)NCCOc1ccc(C(=O)NC[C@H](NC(=O)Nc2ccc(Cl)cc2)C(=O)O)c(O)c1
R: CCCCNC(=O)N[C@@H](CNC(=O)c1ccc(OCCNC2=NCCN2)cc1O)C(=O)O
S: CCOC(=O)N[C@@H](CNC(=O)c1ccc(OCCNC(=N)N)cc1O)C(=O)O
Sort these compounds on pIC50 so the largest reading comes first. Output the labels ranked as instructed.
P, R, S, Q

* * *

# SUBJECT OF TEST: αVβ3 integrin (Homo sapiens, UniProt P05106+P06756)
# Construct: αVβ3-expressing cell lines are maintained by standard tissue culture techniques; endogenous in cells; host or cells: αVβ3-expressing cell lines
# ASSAY METHOD TEXT: Osteopontin-αVβ3 Cell Attachment Assay
# Format: cell-based
Where a name gives a salt, the structure may show the parent alone.
ENDPOINT LABEL: IC50 (µM)

Reference set (4 entries):
O=C(O)CC(NC(=O)c1ccc(OCCNC2=NCCCN2)cc1O)c1ccccc1 (stereo not shown) : 28
O=C(NC[C@H](NS(=O)(=O)c1ccccc1)C(=O)O)c1ccc(OCCNc2ncccn2)cc1O : 18
CCOC(=O)[C@H](CNC(=O)c1ccc(OCCNC2=NCCCN2)cc1O)NS(=O)(=O)c1ccccc1 [Example 276, hydrochloride] : 0.12
N=C(N)NCCOc1ccc(C(=O)NC(CC(=O)O)c2ccccc2)c(O)c1 (stereo not shown) [Example 280, hydrochloride] : 78

1: O=C(NC[C@H](NS(=O)(=O)c1ccccc1)C(=O)O)c1ccc(OCCNC2=NCCCN2)cc1O [Example 275, hydrochloride]
2: O=C(N[C@@H](CNC(=O)c1ccc(OCCNC2=NCCCN2)cc1O)C(=O)O)OCc1ccccc1 [Example 278, hydrochloride]
3: O=C(N[C@@H](CNC(=O)c1ccc(OCCNc2ncccn2)cc1O)C(=O)O)OCc1ccccc1
Sort the compounds on IC50; start with the lowest figure. Output the labels ranked as instructed.
1, 2, 3

* * *

# SUBJECT OF TEST: Vitronectin receptor αVβ3 (Homo sapiens, UniProt P05106+P06756)
# ASSAY METHOD TEXT: Vitronectin Receptor αVβ3 Binding Assay
# SETUP CONDITIONS: read-out: VnR (IC50μM)
ENDPOINT LABEL: IC50 (µM)

Reference set (3 entries):
O=C(Nc1ccccc1Br)N[C@@H](CNC(=O)c1ccc(OCCNC2=NCCCN2)cc1O)C(=O)O [Example 28] : 0.159
Cc1ccccc1C(=O)N[C@@H](CNC(=O)c1ccc(OCCNC(=N)N)cc1O)C(=O)O [Example 204] : 7.48
C=CCNC(=O)N[C@@H](CNC(=O)c1ccc(OCCNC2=NCCN2)cc1O)C(=O)O [Example 111] : 0.856

A: O=C(NCCOc1ccc(C(=O)NC[C@H](NC(=O)OCc2ccccc2)C(=O)O)c(O)c1)NCc1ccccc1Br [Example 269]
B: CC(C)COC(=O)N[C@@H](CNC(=O)c1ccc(OCCNC2=NCCCN2)cc1O)C(=O)O [Example 12]
C: COc1ccccc1NC(=O)N[C@@H](CNC(=O)c1ccc(OCCNC2=NCCCN2)cc1O)C(=O)O [Example 25]
D: CCCCCCCCOC(=O)N[C@@H](CNC(=O)c1ccc(OCCNC2=NCCN2)cc1O)C(=O)O [Example 105]
Sort the molecules on IC50; start with the lowest figure. Output the labels ranked as instructed.
B, D, C, A
(B: 0.0661 µM, D: 0.135 µM, C: 0.674 µM, A: 21.2 µM)
